- Tested on: human non-small cell lung cancer A549 cells
- Test summary: Inhibitory action on the proliferation of A549 cells
- Type: cell-based
- Experimental conditions: 96 hours, TetraColor ONE
Quantity: A549 proliferation inhibitory action IC50 (ng/mL)

> print(dat)
                                      smiles  result.number
 1  COc1cc2c3c(c4ccc(OC(=O)c5cccnc5)cc4c2cc1OC)C[C@@H]1CCCN1C3.Cl           0.97
 2  COC(=O)CCC(=O)Oc1ccc2c3c(c4cc(OC)c(OC)cc4c2c1)CN1CCC[C@H]1C3.CS(=O)(=O)O            1.2
 3  COC(=O)CCC(=O)Oc1ccc2c3c(c4cc(OC)c(OC)cc4c2c1)CN1CCC[C@H]1[C@H]3O.Cl           0.59
 4  COc1cc2c3c(c4ccc(N5CCCC5)cc4c2cc1OC)C[C@@H]1CCCN1C3.CS(=O)(=O)O           61.1
 5  COc1cc2c3c(c4ccc(OC(=O)C(C)C)cc4c2cc1OC)[C@H](O)[C@@H]1CCCN1C3.Cl           0.57
 6  COc1cc2c3c(c4ccc(OC(=O)C(C)(C)C)cc4c2cc1OC)C[C@@H]1CCCN1C3.CS(=O)(=O)O            1.2
 7  COc1cc2c3c(c4ccc(OC(C)=O)cc4c2cc1OC)C[C@@H]1CCCN1C3.Cl           0.18
 8  COc1cc2c3c(c4ccc(OC(=O)C(C)(C)C)cc4c2cc1OC)C[C@@H]1CCCN1C3.Cl            1.2
 9  COc1cc2c3c(c4ccc(OC(=O)C(C)(C)C)cc4c2cc1OC)[C@H](O)[C@@H]1CCCN1C3.Cl           0.14
10  COc1cc2c3c(c4ccc(OC(=O)c5cccnc5)cc4c2cc1OC)C[C@@H]1CCCN1C3.CS(=O)(=O)O            1.1
11  COc1cc2c3c(c4ccc(OC(=O)c5ccco5)cc4c2cc1OC)C[C@@H]1CCCN1C3.Cl            1.1
12  COC(=O)Oc1ccc2c3c(c4cc(OC)c(OC)cc4c2c1)CN1CCC[C@H]1[C@H]3O.Cl           0.53
